These data points were gathered from patent US10689377B2.

Molecular target: KRas G12C (Homo sapiens, UniProt P01116, G12C)
Sequence (P01116 1-188 isoform P01116-2 G12C): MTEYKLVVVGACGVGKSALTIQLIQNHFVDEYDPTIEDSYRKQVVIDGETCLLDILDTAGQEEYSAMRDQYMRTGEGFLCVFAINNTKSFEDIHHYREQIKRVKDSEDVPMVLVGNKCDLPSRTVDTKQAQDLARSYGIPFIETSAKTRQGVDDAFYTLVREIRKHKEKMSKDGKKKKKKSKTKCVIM
Assay: Cellular inhibition of KRas G12C measured by Phospho-ERK in NCI-H358 cells
Format: cell-based
Settings: pERK(Thr202/Tyr204) normalized with GAPDH, NCI-H358 cells, 3 hours; read-out: IC50
Measured IC50, listed per entry.

Completed entries (count: 5):
- C=C(F)C(=O)N1CCN(c2nc(OC[C@@H]3CCCN3)nc3c2CCN(c2cccc4cccc(C)c24)C3)C[C@@H]1CC#N: 0.1 to 1000 nM
- C=C(F)C(=O)N1CCN(c2nc(OC[C@@H]3CCCN3C)nc3c2CCN(c2c(C)c(C)cc4[nH]ncc24)C3)C[C@@H]1CC#N [Example 604]: 0.1 to 1000 nM
- C=CC(=O)N1CCN(c2nc(OC[C@@H]3CCCN3CC)nc3c2CCN(c2cccc4ccccc24)C3)CC1CC#N (some centres unmarked): 0.1 to 1000 nM
- C=CC(=O)N1CCN(c2nc(OC[C@@H]3CCCN3C)nc3c2CCN(c2cccc4ccccc24)C3)C(CC#N)C1 (some centres unmarked): > 1000 nM
- C=CC(=O)N1CCN(c2nc(OC[C@@H]3CCCN3C)nc3c2CCN(c2cccc4ccccc24)C3)C[C@H]1C: > 1000 nM

Exercise: Query (compound): C=C(F)C(=O)N1CCN(c2nc(OC[C@@H]3CCCN3C)nc3c2CCN(c2cc(O)cc4ccccc24)C3)C[C@@H]1CC#N ; field requested: IC50
Solution: 0.1 to 1000 nM

Exercise: Look up IC50 for this compound: C/C=C/C(=O)N1CCN(c2nc(OC[C@@H]3CCCN3C)nc3c2CCN(c2cccc4ccccc24)C3)CC1CC#N (some centres unmarked) [Example 293]
Solution: 0.1 to 1000 nM

Exercise: Please look up its IC50: C=CC(=O)N1CCN(c2nc(OC[C@@H]3CCCN3C)nc3c2CCN(c2cnccc2C#N)C3)C[C@@H]1CC#N
Solution: > 1000 nM

Exercise: # IC50 lookup, item C=CC(=O)N1CCN(c2nc(OC[C@@H]3CCCN3C)nc3c2CCN(c2cccc(C)c2C(F)(F)F)C3)C[C@@H]1CC#N
Solution: 0.1 to 1000 nM

Exercise: Given the compound C=CC(=O)N1CCN(c2nc(OCCCN3CCOCC3)nc3c2CCN(c2c(C(F)(F)F)ccc4[nH]ncc24)C3)CC1 , what is its reported IC50?
Solution: 0.1 to 1000 nM

Exercise: Could you share which IC50 value was measured for C=CC(=O)N1CCN(c2nc(OC[C@@H]3CCCN3C)nc3c2CCN(c2cccc(OC)c2F)C3)CC1CC#N (some centres unmarked) ?
Solution: > 1000 nM

###

Target: KRas G12C (Homo sapiens, UniProt P01116, G12C)
Test: Cellular inhibition of KRas G12C measured by Phospho-ERK in NCI-H358 cells
Format: cell-based
Conditions: pERK(Thr202/Tyr204) normalized with GAPDH, NCI-H358 cells, 3 hours; read-out: IC50
Quick reference: IC50 of the listed items.

// solved cases for IC50 follow
• C=C(F)C(=O)N1CCN(c2nc(OC[C@@H]3CCCN3C)nc3c2CCN(c2cncc4cccc(C)c24)C3)C[C@@H]1CC#N [Example 619] = 0.1 to 1000 nM
• C=CC(=O)N1CCN(c2nc(OC[C@@H]3CCCN3C)nc3c2CCN(c2cccc(Cl)c2C(F)(F)F)C3)CC1CC#N (stereo partly shown) [Example 277] = 0.1 to 1000 nM

Exercise: Quick one: IC50 for C=CC(=O)N1CCN(c2nc(OC[C@H]3CCCN3C)nc3c2CCN(c2ccccc2C(F)(F)F)C3)CC1CC#N (stereo partly shown) [Example 299] ?
Solution: 0.1 to 1000 nM

Exercise: I would be grateful if you could share the reported IC50 for C=CC(=O)N1CCN(c2nc(OCCCN3CCOCC3)nc3c2CCN(c2cc(O)ccc2C)C3)CC1 [Example 105] .
Solution: > 1000 nM

Exercise: Look up IC50 for this compound: C=CC(=O)N1CCN(c2nc(OC[C@H]3CN(C)[C@H](C)CO3)nc3c2CCN(c2cccc4ccccc24)C3)C[C@@H]1CC#N [Example 451]
Solution: 0.1 to 1000 nM

Exercise: Look at this compound and give its reported IC50. C=CC(=O)N1CCN(c2nc(O[C@H](C)CN(C)C)nc3c2CCN(c2cc(O)c(F)c4ccccc24)C3)CC1 [Example 124]
Solution: > 1000 nM

Exercise: Return reported IC50; argument: C=C(NC(C)=O)C(=O)N1CCN(c2nc(OC[C@@H]3CCCN3C)nc3c2CCN(c2cccc4cccc(C)c24)C3)C[C@@H]1CC#N [Example 525]
Solution: 0.1 to 1000 nM
